- Test Summary: Chemical stability of lipids in ethanol at room temperature and 37° C. (lipid purity)
- Type: physicochemical
- Measurement Parameters: 96 h, 37° C.
Recorded Metric: Lipid Purity, t = 96 h, 37° C. (%)
Expressed in %, but write only the number.

Worked cases, Lipid Purity, t = 96 h, 37° C. given:
compound="CCCCCCCCCOC(=O)CCCCCCCN(CCO)CCCCCCCC(=O)OCCCCCCCCC [compound 138]" unit_tag=% reported=97.82
compound="CCCCCCCCCOC(=O)CCCN(CCO)CCCCCCCC(=O)OC(CCCCCCCC)CCCCCCCC [Compound 26]" unit_tag=% reported=95.72
compound="CCCCC/C=C\\C/C=C\\CCCCCCCCN(CCO)CCCCCCCC(=O)OC(CCCCCCCC)CCCCCCCC [Compound 6]" unit_tag=% reported=94.29

Turning to the following compound.
I have this compound here, CCCCCCCCCCCOC(=O)CCCCCN(CCO)CCCCCCCC(=O)OC(CCCCCCCC)CCCCCCCC [Compound 25] , and I need its recorded Lipid Purity, t = 96 h, 37° C..
96.13
